These entries and their values trace back to patent US11634477.

I'd be grateful if you could share measured EC50 for these entries.
- tgt: SARS-CoV RBD (SARS-CoV, UniProt P59594)
- test: ELISA

C118 (antibody, V domains shown) VH: QVQLVESGGGVVQPGRSLRLSCAASGFTFSNYAMHWVRQAPGKGLEWVAVISYDGSNKYYADSVKGRFTISRDNSKNTLYLQMNSLRAEDTAIYYCASGYTGYDYFVRGDYYGLDVWGQGTTVTVSS VL: QPVLTQSPSASASLGASVKLTCTLSSGHSSYAIAWHQQQPEKGPRYLMKLNTDGSHSKGDGIPDRFSGSSSGAERYLTISSLQSEDEADYYCQTWGTGILVFGGGTKLTVL :: 0.00382 µg/mL
C156 (antibody, V domains shown) VH: QVQLVESGGGVVQPGRSLRLSCAASGFTFSNYGMHWVRQAPGKGLEWVAVISYDGNNKYYADSVKGRFTISRDNSKNTLYLQMNSLRAEDTAVYYCAKDPFPLAVAGTGYFDYWGQGTLVTVSS VL: SYELTQPPSVSVAPGQTARISCGGNNIGSKNVHWYQQKPGQAPVLVVYDDSDRPSGIPERFSGSNSGNTATLTISRVEAGDEADYYCQVWDSSSDPWVFGGGTKLTVL :: > 1 µg/mL

Continue with the next binder.
Enquiry: Form field: reported EC50 of C138 (antibody, V domains shown) VH: EVQLVESGGGLVQPGGSLRLSCAASGFTFSTYWMSWVRQPPGKGLEWVANIKQDGSEKYYVDSVKGRFTISRDNAKNSLYLQMNSLRADDTAVYYCAGGTWLRSSFDYWGQGTLVTVSS VL: NFMLTQPHSVSESPGKTVTISCTGSSGSIASNYVQWYQQRPGSAPTTVIYEDNQRPSGVPDRFSGSIDSSSNSASLTISGLKTEDEADYYCQSYDSSNWVFGGGTKLTVL
Return: > 1 µg/mL
